From: ChEMBL document CHEMBL3259653

# assayed-target: Prostaglandin G/H synthase 1 (Ovis aries)
# measurement-notes: Inhibition of ovine COX-1 using arachidonic acid as substrate assessed as consumption of oxygen at 5 uM preincubated for 5 mins followed by substrate addition by oxygen electrode-based assay relative to control
observable: inhibition

[[record]]
structure = "CNc1oc(-c2ccc(Cl)c(Cl)c2)nc1C#N"
assayed_target = "Prostaglandin G/H synthase 1 (Ovis aries)"
recorded_value = "< 10%"

[[record]]
structure = "CNc1oc(-c2cccc3ccccc23)nc1C#N"
assayed_target = "Prostaglandin G/H synthase 1 (Ovis aries)"
recorded_value = "< 10%"

[[record]]
structure = "CNc1oc(-c2cccc(Cl)c2Cl)nc1C#N"
assayed_target = "Prostaglandin G/H synthase 1 (Ovis aries)"
recorded_value = "< 10%"

[[record]]
structure = "CNc1sc(-c2cccc3ccccc23)nc1C#N"
assayed_target = "Prostaglandin G/H synthase 1 (Ovis aries)"
recorded_value = "< 10%"


====

# assayed-target: Polyunsaturated fatty acid lipoxygenase ALOX15 (Homo sapiens, UniProt P16050)
# Sequence (P16050 whole entry): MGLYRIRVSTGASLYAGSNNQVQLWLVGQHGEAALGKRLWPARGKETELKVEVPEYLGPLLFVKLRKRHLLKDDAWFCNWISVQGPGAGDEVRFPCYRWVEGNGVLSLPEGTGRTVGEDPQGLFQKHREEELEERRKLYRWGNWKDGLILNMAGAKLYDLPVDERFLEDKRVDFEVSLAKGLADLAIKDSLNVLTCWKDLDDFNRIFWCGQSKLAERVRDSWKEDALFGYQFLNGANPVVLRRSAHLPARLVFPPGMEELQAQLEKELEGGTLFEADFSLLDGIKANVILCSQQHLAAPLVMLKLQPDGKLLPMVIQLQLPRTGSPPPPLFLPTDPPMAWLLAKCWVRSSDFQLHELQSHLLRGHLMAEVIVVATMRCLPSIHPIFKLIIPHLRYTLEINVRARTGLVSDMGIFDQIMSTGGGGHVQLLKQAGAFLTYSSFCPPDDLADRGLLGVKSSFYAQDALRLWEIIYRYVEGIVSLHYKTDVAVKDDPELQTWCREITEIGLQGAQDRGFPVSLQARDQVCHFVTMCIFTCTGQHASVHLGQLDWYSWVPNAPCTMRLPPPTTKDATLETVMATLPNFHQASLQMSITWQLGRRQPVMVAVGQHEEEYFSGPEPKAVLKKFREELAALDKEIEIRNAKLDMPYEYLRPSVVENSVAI
# measurement-notes: Inhibition of recombinant N-terminal His6-tagged human reticulocyte 12/15-lipoxygenase using arachidonic acid as substrate by UV-vis spectrometric analysis
observable: IC50

[[record]]
structure = "CNc1nc(C#N)c(-c2cccc3ccccc23)o1"
observable = "IC50"
recorded_value = "> 40 µM"

[[record]]
structure = "CNc1oc(-c2cccc3ccccc23)nc1C(=O)OC"
observable = "IC50"
recorded_value = "> 40 µM"

[[record]]
structure = "CC(C)Nc1oc(-c2cccc3ccccc23)nc1C#N"
observable = "IC50"
recorded_value = "> 40 µM"

[[record]]
structure = "N#Cc1nc(-c2cccc3ccccc23)oc1NCc1ccccc1"
observable = "IC50"
recorded_value = "> 30 µM"

[[record]]
structure = "CNc1oc(C2CCCC2)nc1C#N"
observable = "IC50"
recorded_value = "> 50 µM"

[[record]]
structure = "N#Cc1nc(-c2cccc3ccccc23)oc1Nc1ccccc1"
observable = "IC50"
recorded_value = "> 30 µM"

[[record]]
structure = "CNc1nnc(-c2cccc3ccccc23)s1"
observable = "IC50"
recorded_value = "> 40 µM"

[[record]]
structure = "N#Cc1nc(-c2cccc3ccccc23)oc1NC1COC1"
observable = "IC50"
recorded_value = "> 25 µM"

[[record]]
structure = "CNc1nc(-c2cccc3ccccc23)ccc1C#N"
observable = "IC50"
recorded_value = "> 40 µM"

[[record]]
structure = "N#Cc1nc(-c2cccc3ccccc23)oc1NC1CNC1"
observable = "IC50"
recorded_value = "> 40 µM"


====

Sequence of the target: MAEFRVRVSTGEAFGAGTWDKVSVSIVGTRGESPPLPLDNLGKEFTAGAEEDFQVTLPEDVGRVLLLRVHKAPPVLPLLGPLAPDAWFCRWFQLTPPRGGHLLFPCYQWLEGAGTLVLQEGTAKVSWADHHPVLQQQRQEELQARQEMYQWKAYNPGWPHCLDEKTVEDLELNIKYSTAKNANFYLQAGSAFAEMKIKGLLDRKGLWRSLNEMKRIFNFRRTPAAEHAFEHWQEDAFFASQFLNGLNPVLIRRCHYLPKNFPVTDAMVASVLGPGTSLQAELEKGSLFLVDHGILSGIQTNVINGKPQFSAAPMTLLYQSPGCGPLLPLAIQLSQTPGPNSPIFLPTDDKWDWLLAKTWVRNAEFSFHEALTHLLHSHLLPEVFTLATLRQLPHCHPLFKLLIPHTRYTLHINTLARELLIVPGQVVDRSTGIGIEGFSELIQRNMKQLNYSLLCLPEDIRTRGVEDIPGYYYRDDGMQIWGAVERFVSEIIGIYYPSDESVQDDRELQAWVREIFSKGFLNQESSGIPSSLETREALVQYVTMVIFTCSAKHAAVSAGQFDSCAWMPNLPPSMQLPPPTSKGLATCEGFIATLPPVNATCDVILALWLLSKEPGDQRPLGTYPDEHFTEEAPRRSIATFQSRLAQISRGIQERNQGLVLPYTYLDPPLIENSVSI
observable: IC50

[[record]]
structure = "CNc1sc(-c2cccc3ccccc23)nc1C#N"
observable = "IC50"
recorded_value = "> 50 µM"


====

# System: Brain
# measurement-notes: Cmax in CD1 mouse brain at 30 mg/kg, ip
# Assay type: ADME, organism-based
# Design: dose 30 mg/kg, route intraperitoneal
# condition-info: in vivo
observable: Cmax (µM)

[[record]]
structure = "CNc1oc(-c2cccc3ccccc23)nc1C#N"
recorded_value = 28.8

